Data origin: paper PMC7961763

- Tested on: A-549 (human lung adenocarcinoma cell line)
- Assay Info: MTT assay, cytotoxicity against A549
- Assay type: cell-based
- Condition Info: Homo sapiens, A549, 48 h, read-out: IC50 A549
pIC50: −log10 of the molar value.
Readout: pIC50

1) Cc1cc(=O)cc2c3c1[C@@H]1O[C@H]4[C@@H]5OC(=O)[C@](CC2)([C@@H]4C)[C@H]3[C@@H]51 [HO (1), Harringtonolide]    5.78

----------
- Test system: A-549 (human lung adenocarcinoma cell line)
- Assay Info: MTT assay, cytotoxicity against A549
- Type: cell-based
- Condition Info: Homo sapiens, A549, 48 h, MTT, 48 h, A549 cells; read-out: IC50 A549
pIC50: −log10 of the molar value.
Readout: pIC50

1. Cc1cc(=O)cc2c3c1C1OC4C5OC(=O)C(CC2Br)(C4C)C3C15 (centres unmarked)    4.36
2. CC(=O)OC1CC23C(=O)OC4C(OC5c6c(C)cc(=O)cc1c6C2C54)C3C (centres unmarked) [Compound 11a]    4.56
3. Cc1cc(=O)cc2c3c1C1OC4C5OC(=O)C(CC2OC(=O)c2ccco2)(C4C)C3C15 (centres unmarked) [Compound 11c]    4.63
4. Cc1cc(=O)cc2c3c1C1OC4C5OC(=O)C(CC2OC(=O)c2nc(C)c(C)nc2C)(C4C)C3C15 (centres unmarked) [Compound 11f]    4.59
5. Cc1cc(=O)cc2c3c1C1OC4C5OC(=O)C(C=C2)(C4C)C3C15 (centres unmarked)    5.26
6. Cc1cc(=O)cc2c3c1C1OC4C5OC(=O)C(CC2OC(=O)c2ccccn2)(C4C)C3C15 (centres unmarked) [Compound 11e]    4.75

----------
- System: A375 (human melanoma cancer cell line)
- Assay Info: MTT assay, cytotoxicity against A375
- Assay type: cell-based
- Condition Info: Homo sapiens, A-375, 48 h, MTT, 48 h, A375 cells; read-out: IC50 A375
Readout: IC50 (µM)

1. Cc1cc(=O)cc2c3c1C1OC4C5OC(=O)C(C=C2)(C4C)C3C15 (centres unmarked)    4.85
2. CC(=O)OC1CC23C(=O)OC4C(OC5c6c(C)cc(=O)cc1c6C2C54)C3C (centres unmarked) [Compound 11a]    30.1
3. Cc1cc(=O)cc2c3c1C1OC4C5OC(=O)C(CC2OC(=O)c2ccco2)(C4C)C3C15 (centres unmarked) [Compound 11c]    16.4
4. Cc1cc(=O)cc2c3c1C1OC4C5OC(=O)C(CC2OC(=O)c2ccccn2)(C4C)C3C15 (centres unmarked) [Compound 11e]    7.08
5. Cc1cc(=O)cc2c3c1C1OC4C5OC(=O)C(CC2OC(=O)c2nc(C)c(C)nc2C)(C4C)C3C15 (centres unmarked) [Compound 11f]    18.6
6. Cc1cc(=O)cc2c3c1C1OC4C5OC(=O)C(CC2Br)(C4C)C3C15 (centres unmarked)    3.4

----------
- System: A-549 (human lung adenocarcinoma cell line)
- Assay Info: MTT assay, cytotoxicity against A549
- Assay type: cell-based
- Condition Info: Homo sapiens, A549, 48 h, MTT, 48 h, A549 cells; read-out: IC50 A549
Readout: IC50

1) Cc1cc(=O)cc2c3c1C1OC4C5OC(=O)C(CC2=O)(C4C)C3C15 (centres unmarked)    > 50 µM
2) CC(=O)OC1OC2C3OC4c5c(C)cc(=O)cc6c5C(C42)C1(CC6)C3C (centres unmarked)    > 50 µM
3) CC(=O)Nc1c2c3c(c(C)cc1=O)C1OC4C5OC(=O)C(CC2)(C4C)C3C15 (centres unmarked)    > 50 µM
4) Cc1cc(=O)c(N)c2c3c1C1OC4C5OC(=O)C(CC2)(C4C)C3C15 (centres unmarked)    > 50 µM
5) Cc1cc(=O)cc2c3c1C1OC4C5OC(O)C(CC2)(C4C)C3C15 (centres unmarked)    > 50 µM
6) Cc1cc(=O)cc2c3c1C1OC4C5OC(=O)C(CC2OC(=O)c2ccccc2)(C4C)C3C15 (centres unmarked) [Compound 11d]    > 50 µM
7) Cc1cc(=O)cc2c3c1C1OC4C5OC(=O)C(CC2OC(=O)CCC(=O)O)(C4C)C3C15 (centres unmarked) [Compound 11b]    > 50 µM
8) Cc1ccc2c3c1C1OC4C5OC(=O)C(CC2=O)(C4C)C3C15 (centres unmarked)    > 50 µM
